Exercise: state measured TGI for each of the molecules provided.
Tested on: SF-295 CNS
RUN DESCRIPTION: NCI tumour cell line growth inhibition, 48 h

Give recorded TGI with SF-295 CNS for the following molecule: COc1ccc2c(c1)C(=O)c1c-2c(Nc2ccccc2OC)nc2ccccc12
> 100 µM

Give recorded TGI with SF-295 CNS for the following molecule: CSC1=Nc2c(c(C)c(C)n2COC(CO)CO)C2=NC(=O)CN12
> 100 µM

Give recorded TGI with SF-295 CNS for the following molecule: COc1ccc(C(=O)c2cc(OC)c(OC)c(OC)c2OC)cc1O
5.18 µM

Give recorded TGI with SF-295 CNS for the following molecule: CC1(C)CC(=O)C2=C(C1)C(c1ccccc1Cl)C1C(=O)CC(C)(C)CC1(O)O2 (stereo not drawn)
> 31.6 µM

Give recorded TGI with SF-295 CNS for the following molecule: O=C(CC(NC(=O)C(F)(F)F)C(=O)O)OCc1ccccc1 (stereo not drawn)
> 100 µM

Give recorded TGI with SF-295 CNS for the following molecule: CC(C)Oc1cccc(N2C(n3ccnc3)=Nc3ccncc3S2(=O)=O)c1
> 100 µM

Give recorded TGI with SF-295 CNS for the following molecule: c1ccc2c(c1)SCCCS2
> 100 µM

Give recorded TGI with SF-295 CNS for the following molecule: C[n+]1cc2cc(O)c(O)cc2c2ccc3cc(O)c(O)cc3c21
38.8 µM

----------
System: RXF 393 renal
RUN DESCRIPTION: NCI tumour cell line growth inhibition, 48 h; in the data active = GI50 below about 0.43 µM; inactive = the rest
Hi there, use one of these labels in your reply, thanks! active, inactive

Hi team, can someone confirm the assay call for CCn1cc(C(=O)O)c(=O)c2cc(F)c(N3CCN(S(=O)(=O)c4cccc5ccccc45)CC3)cc21 ?
inactive

Hi team, can someone confirm the assay call for COC1N(C2CC(O)C(CO)O2)C(=O)NC(=O)C1(F)Br (centres undefined) ?
inactive

Hi team, can someone confirm the assay call for COC(=O)OC1C(O[C@H]2C[C@H]3[C@@H]4CC=C5C[C@@H](O)CC[C@]5(C)[C@H]4CC[C@]3(C)[C@H]2[C@H](C)C(=O)CCC(C)C)OCC(O)C1OC1OCC(O)C(O)C1OC(=O)c1ccc(OC)cc1 (some centres undefined) ?
active

Hi team, can someone confirm the assay call for COc1ccc2c(c1)c(-c1nc(-c3c[nH]c4ncccc34)cs1)cn2CCCN1CCOCC1 ?
inactive

Hi team, can someone confirm the assay call for COc1cc2c(N3CCN(C(=O)Nc4ccc(OC(C)C)cc4)CC3)ncnc2cc1OCCCN1CCCCC1 ?
inactive

Hi team, can someone confirm the assay call for OC1(c2ccc(Cl)c(C(F)(F)F)c2)CCN(CCCC(c2ccc(F)cc2)c2ccc(F)cc2)CC1 ?
inactive

Hi team, can someone confirm the assay call for N#CC1c2ccccc2C=CN1C(=O)CCCl (centres undefined) ?
inactive

Hi team, can someone confirm the assay call for O=C(Nc1cccc(-n2cc(-c3ccncc3)c(-c3cc(O)cc(Cl)c3)n2)c1)c1ccc(N2CCOCC2)c(C(F)(F)F)c1 ?
active

Hi team, can someone confirm the assay call for COc1cc2c(cc1Nc1nc(N3CCc4ccccc43)c3cc[nH]c3n1)N(C(=O)CN(C)C)CC2 ?
inactive

----------
System: SK-MEL-28 melanoma
RUN DESCRIPTION: NCI tumour cell line growth inhibition, 48 h
Exercise: state measured TGI for each of the compounds provided.

Give recorded TGI with SK-MEL-28 melanoma for the following compound: C[C@]12CCC3[C@@H](CCC45OC4C(=O)CC[C@]35C)C1Cc1cnn(-c3ccc(F)cc3)c1N2 (some centres undefined)
85.2 µM

Give recorded TGI with SK-MEL-28 melanoma for the following compound: O=C(CC(NC(=O)C(F)(F)F)C(=O)O)OCc1ccccc1 (centres undefined)
> 100 µM

Give recorded TGI with SK-MEL-28 melanoma for the following compound: O=C1[C@@H]2C(c3c(Cl)cccc3Cl)=NO[C@@H]2C(=O)N1c1ccc(Cc2ccc(N3C(=O)[C@H]4C(c5c(Cl)cccc5Cl)=NO[C@H]4C3=O)cc2)cc1
> 100 µM

Give recorded TGI with SK-MEL-28 melanoma for the following compound: COc1ccc(OC)c(/C=C/c2nc(=S)n(-c3ccc(Cl)cc3)[nH]2)c1
> 100 µM

----------
Exercise: state measured TGI for each of the compounds provided.
System: 786-0 renal
RUN DESCRIPTION: NCI tumour cell line growth inhibition, 48 h

Fill in: TGI of c1ccc(-c2[nH]ncc2-c2ccnc(-c3ccc(OCCn4ccnc4)cc3)c2)nc1 is ___
> 25 µM

Fill in: TGI of COc1cc2c(cc1Nc1nc(N3CCc4ccccc43)c3cc[nH]c3n1)N(C(=O)CN(C)C)CC2 is ___
8.99 µM

Fill in: TGI of O=C(NC1C(=O)NNC1c1cccc([N+](=O)[O-])c1)c1ccccc1 (stereo not drawn) is ___
> 100 µM

----------
Test system: KM20L2 colon
RUN DESCRIPTION: NCI tumour cell line growth inhibition, 48 h
Exercise: state measured TGI for each of the compounds provided.

Fill in: TGI of O=C1[C@@H]2C(c3c(Cl)cccc3Cl)=NO[C@@H]2C(=O)N1c1ccc(Cc2ccc(N3C(=O)[C@H]4C(c5c(Cl)cccc5Cl)=NO[C@H]4C3=O)cc2)cc1 is ___
> 100 µM

Fill in: TGI of CSCC[C@@H](NC(=O)[C@H](CC(C)C)NC(=O)C(Cc1cnc[nH]1)NC(=O)CNC(=O)[C@@H](NC(=O)[C@H](C)NC(=O)[C@H](Cc1c[nH]c2ccccc12)NC(=O)[C@H](CCC(N)=O)NC(=O)[C@@H](N)CC(N)=O)C(C)C)C(N)=O (stereo not given in full) is ___
> 100 µM

Fill in: TGI of CC1=N/C(=C\c2ccc(/C=C3/N=C(C)OC3=O)cc2)C(=O)O1 is ___
> 100 µM

Fill in: TGI of CCOC(=O)c1nc(C)oc1C(F)(F)F is ___
> 100 µM

Fill in: TGI of N#C/C(=C\c1cc(OCc2ccccc2)c(OCc2ccccc2)cn1)C(N)=O is ___
> 100 µM

Fill in: TGI of COC(=O)CC(=O)OSc1ccccc1 is ___
42.2 µM

Fill in: TGI of CCc1ccccc1NC(=O)c1cccc([N+](=O)[O-])c1O is ___
93.3 µM

Fill in: TGI of O=[N+]([O-])c1ccc(C[P+]2(c3ccccc3)CCCCC2)cc1 is ___
> 100 µM

Fill in: TGI of N#CNC(N)=NCc1ccccc1 is ___
> 100 µM

Fill in: TGI of CN(C)CCNC(=O)c1cccc2c1Nc1ccccc1S2 is ___
29.9 µM

----------
Exercise: state measured TGI for each of the compounds provided.
System: MALME-3M melanoma
RUN DESCRIPTION: NCI tumour cell line growth inhibition, 48 h

Fill in: TGI of S=C(Cc1ccc2c(c1)Sc1ccccc1O2)N1CCOCC1 is ___
90.2 µM

Fill in: TGI of COC(=O)[C@]1(C)CCC[C@@]2(C)C1CC[C@]13C=C(C(C)C)[C@H](CC21)CC3(Cl)C#N (stereo partly drawn) is ___
89.7 µM

Fill in: TGI of CC(Br)C(=O)NC(CO)C(=O)O (stereo not drawn) is ___
> 100 µM

Fill in: TGI of COC(=O)/C=C(\C)CC/C=C(\C)CCC1OC1(C)C (stereo not drawn) is ___
29.1 µM

Fill in: TGI of O=C1/C(=C\c2ccccc2)CN(C(=O)CCN2CCCCC2)C/C1=C/c1ccccc1 is ___
5.44 µM

Fill in: TGI of CC(C)Oc1cccc(N2C(n3ccnc3)=Nc3ccncc3S2(=O)=O)c1 is ___
26.6 µM

Fill in: TGI of CC1CC(N2CCOCC2)=Nc2ccccc2N1C (stereo not drawn) is ___
> 100 µM

Fill in: TGI of CO/N=C1\CC(NC(=O)C(F)(F)F)c2ccsc21 (stereo not drawn) is ___
> 100 µM

----------
Test system: SF-295 CNS
RUN DESCRIPTION: NCI tumour cell line growth inhibition, 48 h
Exercise: state measured TGI for each of the molecules provided.
Give the value in µM but do not write µM after it.

Fill in: TGI of O=C1/C(=C/c2ccc(Cl)c(Cl)c2)CN(C(=O)CCN2CCC(=NO)CC2)C/C1=C\c1ccc(Cl)c(Cl)c1 is ___
2.59

Fill in: TGI of COc1ccc2sc3c(NCCCN)nc4ccccc4c3c(=O)c2c1 is ___
3.36

Fill in: TGI of FC(F)(F)Oc1cccc(-c2cc(NCCCCCCNc3cc(-c4cccc(OC(F)(F)F)c4)nc4ccc(N5CCCC5)cc34)c3cc(N4CCCC4)ccc3n2)c1 is ___
3.11

Fill in: TGI of Cn1c2ccccc2n2c3ncccc3c(=O)c(C#N)c12 is ___
48.4
